molecular target: hMCH-1R (Homo sapiens (Human))
Sequence (Q99705 whole entry): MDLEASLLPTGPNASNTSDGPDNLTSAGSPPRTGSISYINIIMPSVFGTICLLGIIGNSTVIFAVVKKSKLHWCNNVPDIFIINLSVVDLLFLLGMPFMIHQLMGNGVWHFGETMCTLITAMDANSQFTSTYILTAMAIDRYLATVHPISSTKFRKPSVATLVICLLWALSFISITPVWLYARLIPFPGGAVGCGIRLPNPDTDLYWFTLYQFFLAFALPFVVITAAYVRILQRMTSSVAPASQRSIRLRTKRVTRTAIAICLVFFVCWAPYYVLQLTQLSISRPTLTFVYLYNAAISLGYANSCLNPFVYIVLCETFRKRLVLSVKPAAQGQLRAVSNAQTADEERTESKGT
Classification by IC50 | ranges: label 0 (below 20 nM), label 1 (20 nM to below 40 nM), label 2 (40 nM or more)

CCNCc1ccc(C(=O)Cn2ncc(OCc3ccc(Br)cn3)cc2=O)c(C)c1 | label 0
Cc1cc(CN2CC(O)C2)ccc1C(=O)Cn1ccc(OCc2ccc(Cl)cn2)cc1=O | label 1
Cc1cc(CNC(C)C)ccc1C(=O)Cn1ccc(OCc2ccc(Br)cn2)cc1=O | label 0
Cc1cc(CN2CCC[C@@H](O)C2)ccc1C(=O)Cn1ncc(OCc2ccc(Br)cn2)cc1=O | label 1
CCN(C)Cc1ccc(C(=O)Cn2ccc(OCc3ccc(Br)cn3)cc2=O)c(C)c1 | label 0

Please report the category associated with Cc1cc(CN2CCC2)ccc1C(=O)Cn1ccc(OCc2ccc(Br)cn2)cc1=O , nothing else.
label 0

Lab note: which band did Cc1cc(CN2CC(O)C2)ccc1C(=O)Cn1ncc(OCc2ccc(Cl)cn2)cc1=O land in?
label 1

Just checking, what class would you give Cc1cc(CN2CCCCC2)ccc1C(=O)Cn1ccc(OCc2ccc(F)cn2)cc1=O here?
label 2

src = patent US8933079B2
